The values you see were collected from ChEMBL document CHEMBL5113403.

- system-under-test: Serine/threonine-protein kinase PLK4 (Homo sapiens)
- test: Inhibition of recombinant human PLK4 incubated for 60 mins by Lanthascreen Eu kinase binding assay
assay-readout: pIC50
Hey, just a heads up that pIC50 is the negative log base 10 of the concentration in molar.

• Cc1cnc(Nc2nc(NCc3ccc(F)cc3F)nc3c2cnn3C2CCOCC2)s1 = 7.68
• Fc1ccc(CNc2nc(Nc3cc(C4CC4)[nH]n3)c3cnn(C4CCOCC4)c3n2)c(F)c1 = 8.74
• Cc1cc(Nc2nc(NCc3ccccc3)nc3[nH]ncc23)n[nH]1 = 7.67

Lab note: molecule Cc1cc(Nc2nc(NCc3ccccc3F)nc3[nH]ncc23)n[nH]1 tested on Serine/threonine-protein kinase PLK4 (Homo sapiens); recorded pIC50 was 9.00

pIC50 value, target or system Serine/threonine-protein kinase PLK4 (Homo sapiens), for Cc1cc(Nc2nc(NCc3ccc(F)cc3)nc3[nH]ncc23)n[nH]1 : 9.10

###

- system-under-test: Serine/threonine-protein kinase PLK4 (Homo sapiens, UniProt O00444)
- Sequence (O00444 whole entry): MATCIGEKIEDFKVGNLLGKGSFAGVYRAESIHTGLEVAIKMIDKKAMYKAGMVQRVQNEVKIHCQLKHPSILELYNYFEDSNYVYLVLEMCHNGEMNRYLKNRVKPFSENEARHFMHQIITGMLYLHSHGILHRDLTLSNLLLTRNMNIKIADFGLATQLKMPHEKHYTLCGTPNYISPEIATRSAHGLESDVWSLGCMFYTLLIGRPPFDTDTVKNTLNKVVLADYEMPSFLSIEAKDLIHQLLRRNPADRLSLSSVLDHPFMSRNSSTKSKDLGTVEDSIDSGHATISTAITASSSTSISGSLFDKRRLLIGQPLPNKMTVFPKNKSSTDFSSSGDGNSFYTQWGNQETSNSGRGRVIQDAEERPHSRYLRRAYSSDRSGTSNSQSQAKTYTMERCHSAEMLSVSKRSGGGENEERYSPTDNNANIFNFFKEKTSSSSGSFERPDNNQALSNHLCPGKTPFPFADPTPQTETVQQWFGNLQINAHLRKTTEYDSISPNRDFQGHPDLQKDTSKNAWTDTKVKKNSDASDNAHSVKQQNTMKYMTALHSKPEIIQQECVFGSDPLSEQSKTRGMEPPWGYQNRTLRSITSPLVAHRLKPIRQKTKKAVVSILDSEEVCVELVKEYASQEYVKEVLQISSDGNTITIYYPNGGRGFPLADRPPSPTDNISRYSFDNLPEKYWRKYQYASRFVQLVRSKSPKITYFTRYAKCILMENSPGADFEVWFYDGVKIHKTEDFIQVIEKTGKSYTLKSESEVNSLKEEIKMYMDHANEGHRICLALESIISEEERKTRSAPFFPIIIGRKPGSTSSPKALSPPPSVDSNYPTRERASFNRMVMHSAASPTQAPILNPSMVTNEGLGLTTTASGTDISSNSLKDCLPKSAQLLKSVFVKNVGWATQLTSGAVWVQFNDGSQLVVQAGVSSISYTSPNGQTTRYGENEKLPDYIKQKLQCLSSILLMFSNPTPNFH
- test: Inhibition of recombinant human PLK4 incubated for 60 mins by Lanthascreen Eu kinase binding assay
The compounds listed here are annotated with their IC50.
Give just the numeric value; nM need not be written.

Summary for this compound, Cc1cc(Nc2nc(N3CCNCC3)nc3[nH]ncc23)n[nH]1 : IC50 is 533

Entry under test: Cc1cc(Nc2nc(Nc3ccccc3)nc3[nH]ncc23)n[nH]1 . Its IC50 was 206

Fc1ccc(-c2cc(Nc3nc(NCc4ccc(F)cc4F)nc4c3cnn4C3CCOCC3)n[nH]2)cc1 yielded IC50 of 1290

For record Cc1cc(Nc2nc(NCc3ccc(Cl)cc3)nc3[nH]ncc23)n[nH]1 the listed IC50 is 0.3

Per the records, this compound ( Cc1cc(Nc2nc(NCc3ccc(Cl)cc3)nc3c2cnn3CC(C)(C)O)n[nH]1 ) has IC50 equal to 3.8

###

- Tested on: BT-474
- test: Antiproliferative activity against human BT-474 cells assessed as cell growth inhibition incubated for 5 days by MTT assay
- Format: functional, cell-based
- assay-context: BT-474, 120 h
Consider the cut-off 10 µM. If the recorded IC50 is strictly smaller, the label is TRUE; if not, the label is FALSE.

Would you please look over these solved cases?
* Cc1cc(Nc2nc(NCc3ccc(F)cc3F)nc3c2cnn3CC(C)(C)O)n[nH]1 | FALSE
* CCc1cc(Nc2nc(NCc3ccc(F)cc3F)nc3c2cnn3C2CCOCC2)n[nH]1 | TRUE
* Cc1cc(Nc2nc(NCc3ccccc3Cl)nc3[nH]ncc23)n[nH]1 | TRUE
* Cc1cc(Nc2nc(NCc3ccc(Cl)cc3)nc3c2cnn3C2CCOCC2)n[nH]1 | FALSE
* Cc1cc(Nc2nc(NCc3ccc(Cl)cc3)nc3c2cnn3CC(C)(C)O)n[nH]1 | FALSE

Input: Field: below-cutoff. Rule: recorded IC50 strictly less than 10 µM. Subject: COc1ccc(CNc2nc(Nc3cc(C)[nH]n3)c3cn[nH]c3n2)cc1
Output: TRUE

Input: Strictly below 10 µM in IC50? Cc1cc(Nc2nc(NCc3ccc(F)cc3F)nc3c2cnn3C2CCCCC2)n[nH]1
Output: TRUE

Input: Given Cc1cc(Nc2nc(NCc3ccc(F)cc3F)nc3[nH]ncc23)n[nH]1 , is recorded IC50 strictly lower than 10 µM?
Output: TRUE

Input: Does the reported IC50 of Cc1cc(Nc2nc(NCc3ccc(F)cc3F)nc3c2cnn3C2CCOCC2)n[nH]1 stay below 10 µM?
Output: TRUE

Input: Does the reported IC50 of COc1c(Nc2cc(C)[nH]n2)nc(Sc2ccc(S(=O)(=O)Cc3cccc([N+](=O)[O-])c3F)cc2F)nc1N1CCOCC1 stay below 10 µM?
Output: FALSE

###

Overview of reported IC50 across a group of compounds:
- Test system: MDA-MB-231
- test: Antiproliferative activity against human MDA-MB-231 cells assessed as cell growth inhibition incubated for 5 days by MTT assay
- Format: functional, cell-based
- assay-context: MDA-MB-231, 120 h
Write the number in µM without appending the unit.

- Cc1cc(Nc2nc(NCc3ccc(F)cc3F)nc3c2cnn3C2CCNCC2)n[nH]1: 1.08
- Cc1cc(Nc2nc(NCc3ccc(F)cc3)nc3[nH]ncc23)n[nH]1: 8.41
- Cc1cc(Nc2nc(NCc3cccc(Cl)c3)nc3[nH]ncc23)n[nH]1: 6.86
- Cc1cc(Nc2nc(NCc3ccc(F)cc3F)nc3c2cnn3CC(C)(C)O)n[nH]1: 2.51

Looking up Cc1cc(Nc2nc(NCc3ccc(Cl)cc3)nc3c2cnn3C(C)C)n[nH]1 , I see its IC50 listed as 4.86

// Cc1cc(Nc2nc(NCc3ccc(Cl)cc3)nc3c2cnn3C2CCNCC2)n[nH]1 : IC50 value = 3.22

###

- system-under-test: Serine/threonine-protein kinase PLK4 (Homo sapiens, UniProt O00444)
- test: Inhibition of recombinant human PLK4 incubated for 60 mins by Lanthascreen Eu kinase binding assay
Item-by-item account of pIC50
FYI, pIC50 means -log10 of a concentration in mol per litre.

Guide cases for pIC50, answers given:
- Cc1cc(Nc2nc(NCc3ccc(F)cc3F)nc3c2cnn3C2CCCCC2)n[nH]1: 8.10
- Cc1cc(Nc2nc(NCc3cccc(F)c3)nc3[nH]ncc23)n[nH]1: 7.84

Here is another compound to look at.
Entry COc1ccc(CNc2nc(Nc3cc(C)[nH]n3)c3cn[nH]c3n2)cc1 ; pIC50 = 8.19

###

Listing: pIC50 of selected compounds
- system-under-test: Serine/threonine-protein kinase PAK 4 (Homo sapiens, UniProt O96013)
- Sequence (O96013 whole entry): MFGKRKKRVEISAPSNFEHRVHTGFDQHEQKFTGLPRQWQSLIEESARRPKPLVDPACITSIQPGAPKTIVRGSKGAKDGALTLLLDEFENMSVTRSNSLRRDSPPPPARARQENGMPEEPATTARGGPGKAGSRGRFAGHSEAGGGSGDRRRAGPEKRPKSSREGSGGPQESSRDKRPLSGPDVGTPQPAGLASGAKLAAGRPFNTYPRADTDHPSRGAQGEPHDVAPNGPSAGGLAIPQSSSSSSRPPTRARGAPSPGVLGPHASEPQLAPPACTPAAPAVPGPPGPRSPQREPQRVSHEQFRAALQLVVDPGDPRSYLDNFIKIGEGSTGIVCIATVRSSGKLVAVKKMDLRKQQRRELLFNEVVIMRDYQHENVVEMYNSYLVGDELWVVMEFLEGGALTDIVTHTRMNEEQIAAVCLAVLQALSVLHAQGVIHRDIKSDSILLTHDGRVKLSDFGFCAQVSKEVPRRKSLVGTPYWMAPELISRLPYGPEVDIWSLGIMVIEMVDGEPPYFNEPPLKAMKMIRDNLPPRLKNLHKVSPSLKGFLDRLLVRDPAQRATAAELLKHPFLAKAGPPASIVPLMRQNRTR
- test: Inhibition of PAK4 (unknown origin) incubated for 60 mins by time-resolved HTRF assay
In textbook form, pIC50 equals minus log to base ten of the concentration in mol/L.

• Cc1cc(Nc2nc(N3CCNCC3)nc3[nH]ncc23)n[nH]1 = 5.82
• Cc1cc(Nc2nc(NC3CCNCC3)nc3[nH]ncc23)n[nH]1 = 6.56
• Cc1cc(Nc2nc(NCc3ccc(Cl)cc3)nc3[nH]ncc23)n[nH]1 = 6.29
• Cc1cc(Nc2nc(NC3CCNC3)nc3[nH]ncc23)n[nH]1 (stereo not drawn) = 5.98
• Cc1cc(Nc2nc(NCc3ccccc3F)nc3[nH]ncc23)n[nH]1 = 6.41

// field: pIC50; key: Cc1cc(Nc2nc(NCc3ccc(F)cc3F)nc3c2cnn3C2CCNCC2)n[nH]1 ; value = 6.64

pIC50 recorded for this compound, Cc1cc(Nc2nc(NCc3ccccc3)nc3[nH]ncc23)n[nH]1 , is 5.71

The compound Cc1cc(Nc2nc(NCc3ccc(F)cc3F)nc3c2cnn3C2CCOCC2)n[nH]1 showed pIC50 equal to 5.76

pIC50 recorded for this compound, Cc1cc(Nc2nc(NCc3cccc(Cl)c3)nc3[nH]ncc23)n[nH]1 , is 6.21

Record summary for Cc1cc(Nc2nc(NCc3ccccc3Cl)nc3[nH]ncc23)n[nH]1 : reported pIC50 = 6.18

# compound Cc1cc(Nc2nc(NCc3ccc(F)cc3F)nc3[nH]ncc23)n[nH]1 ; its pIC50 = 7.02

For this compound ( Cc1cc(Nc2nc(NCc3ccc(F)cc3)nc3[nH]ncc23)n[nH]1 ), measured pIC50 is 6.40

The compound listed as Cc1cc(Nc2nc(NCc3ccccc3Br)nc3[nH]ncc23)n[nH]1 shows pIC50 equal to 5.96
